- Tested on: NCI-H596;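 further: growth inhibition of NCI-H596 cells, read out with a cell viability assay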
- ASSAY: cells
- Type: functional, cell-based, Homo sapiens
- STUDY_CONDITIONS: Homo sapiens, NCI-H596
- Description: SANGER: Inhibition of human NCI-H596 cell growth in a cell viability assay.
REPORTED_METRIC: IC50

In [3]: df
Out[3]:
                                   molecule      result
0  C[C@]1(O)C[C@@H](c2nc(-c3ccc4ccc(-c5ccccc5)nc4c3)c3c(N)nccn32)C1 [LINSITINIB]   > 2560 nM
1  CCOc1nc(NC(=O)Cc2cc(OC)ccc2OC)cc(N)c1C#N  > 10000 nM
2  C=CCc1cccc(/C=N/NC(=O)CN2CCN(Cc3ccccc3)CC2)c1O [PAC-1]   > 2560 nM

The measured values listed here are drawn from ChEMBL document CHEMBL1201861.
